molecular target: Pin1 (Homo sapiens, UniProt Q13526); test: Lysate target engagement (pull down with biotinylated probes; competition assay); assay type: binding; parameters: endogenous in cells; host or cells: MDA-MB-231; conditions: TNBC-MDA-MB-231 lysate; biotin/dtb probes: pull down; others: competition; concentration under E5
Sequence (Q13526 whole entry): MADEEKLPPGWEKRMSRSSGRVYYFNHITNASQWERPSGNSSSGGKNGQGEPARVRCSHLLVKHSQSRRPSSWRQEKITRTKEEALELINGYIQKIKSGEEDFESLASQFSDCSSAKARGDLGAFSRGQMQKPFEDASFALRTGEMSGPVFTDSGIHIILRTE
Non-standard residues stand in square brackets, D forms with d. Residues, ends and D or L forms follow the SMILES beside them. *: point of attachment. 2Nal = N[C@@H](Cc1ccc2ccccc2c1)C(=O)O; NMeF = CN[C@@H](Cc1ccccc1)C(=O)O; Cit = NC(=O)NCCC[C@H](N)C(=O)O; Pip = O=C(O)[C@@H]1CCCCN1; ClAc = O=C(CCl)*; X1 = O=C(C1CO1)*
measurement-label: Lysate Target Engagement?

compound="CCOC(=O)[C@H](CCCNC(N)=O)NC(=O)[C@H](Cc1c[nH]c2ccccc12)NC(=O)[C@@H]1CCCCN1C(=O)[C@H](Cc1ccccc1)N(C)C(=O)CCl [Compound 18] (ClAc-[NMeF][Pip]W[Cit]-OEt)" system_under_test="Pin1 (Homo sapiens, UniProt Q13526)" measurement_label="Lysate Target Engagement?" readout_value=Yes-
compound="NC(=O)NCCC[C@H](NC(=O)[C@H](Cc1ccc2ccccc2c1)NC(=O)[C@@H]1CCCCN1C(=O)[C@H](CCC(=O)O)NC(=O)C1CO1)C(N)=O (stereo partly drawn) [Compound 3b-1] (X1-E[Pip][2Nal][Cit]-NH2)" system_under_test="Pin1 (Homo sapiens, UniProt Q13526)" measurement_label="Lysate Target Engagement?" readout_value=No
compound=COC(=O)CC[C@H](NC(=O)CCl)C(=O)N1CCCC[C@H]1C(=O)N[C@@H](Cc1c[nH]c2ccccc12)C(=O)N[C@@H](Cc1ccc(O)cc1)C(=O)NCc1ccc(C)cc1 system_under_test="Pin1 (Homo sapiens, UniProt Q13526)" measurement_label="Lysate Target Engagement?" readout_value=No
